Data provenance: patent US20260042834A1

# assay target: T1, CRH (CT-Biotin) (human and mouse (same sequence), biotin on an added C-terminal K (CRH-K-Biotin))
# T1 construct: also called Peptide 4 (CRH-Biotin)
# T1 peptide: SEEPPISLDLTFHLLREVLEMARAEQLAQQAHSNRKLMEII
# protocol details: ELISA, biotinylated CRH on streptavidin plate
# pEC50 per entry
Lab note — pEC50 values are minus log10 of concentrations in M.

# input Report pEC50 for PR005660 (antibody, human IgG1, kappa, V domains shown, PTM-removal variant of PR004290) VH: EVQLVESGGVLVQPGGSLRLSCAASGFTFSSYWMTWVRQAPGKGLEWVANIKQEGSEKYYVDSVKGRFTISRDNAKNSLFLQMNSLRAEDTAVYYCARTLIFDYWGQGTLVTVSS VL: DIVMTQSPLSLPVTPGEPASISCRSSQSLLHSTGYQSLEWYLQKPGQSPQLLIYLGSNRASGVPDRFSGSGSGTDFTLKISRVEAEDVGIYYCMQTLQTPITFGQGTRLEIKR please.
# output 10.29

# input What value of pEC50 has been recorded for this entry: PR006144 (antibody, human IgG1, kappa, V domains shown, PTM-removal variant of PR004290) VH: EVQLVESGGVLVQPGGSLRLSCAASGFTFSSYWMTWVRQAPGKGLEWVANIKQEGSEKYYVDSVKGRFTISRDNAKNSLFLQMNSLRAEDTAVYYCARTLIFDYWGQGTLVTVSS VL: DIVMTQSPLSLPVTPGEPASISCRSSQSLLHSTGYNPLEWYLQKPGQSPQLLIYLGSNRASGVPDRFSGSGSGTDFTLKISRVEAEDVGIYYCMQTLQTPITFGQGTRLEIKR
# output 10.49

# input // returns reported pEC50 for input PR006150 (antibody, human IgG1, kappa, V domains shown, PTM-removal variant of PR004290) VH: EVQLVESGGVLVQPGGSLRLSCAASGFTFSSYWMTWVRQAPGKGLEWVANIKQDSSEKYYVDSVKGRFTISRDNAKNSLFLQMNSLRAEDTAVYYCARTLIFDYWGQGTLVTVSS VL: DIVMTQSPLSLPVTPGEPASISCRSSQSLLHSTGYDSLEWYLQKPGQSPQLLIYLGSNRASGVPDRFSGSGSGTDFTLKISRVEAEDVGIYYCMQTLQTPITFGQGTRLEIKR
# output 10.80

# input Could you share which pEC50 value was measured for PR005656 (antibody, human IgG1, kappa, V domains shown, PTM-removal variant of PR004290) VH: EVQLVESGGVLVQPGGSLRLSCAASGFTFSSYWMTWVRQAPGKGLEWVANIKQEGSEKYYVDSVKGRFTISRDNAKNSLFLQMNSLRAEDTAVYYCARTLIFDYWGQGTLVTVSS VL: DIVMTQSPLSLPVTPGEPASISCRSSQSLLHSTGYNSLEWYLQKPGQSPQLLIYLGSNRASGVPDRFSGSGSGTDFTLKISRVEAEDVGIYYCMQTLQTPITFGQGTRLEIKR ?
# output 10.48

# input Dear colleague, I am looking for the recorded pEC50 of the following binder: PR006153 (antibody, human IgG1, kappa, V domains shown, PTM-removal variant of PR004290) VH: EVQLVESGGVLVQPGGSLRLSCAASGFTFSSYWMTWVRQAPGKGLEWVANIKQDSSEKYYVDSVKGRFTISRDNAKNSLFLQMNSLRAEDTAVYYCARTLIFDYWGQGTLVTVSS VL: DIVMTQSPLSLPVTPGEPASISCRSSQSLLHSTGYSSLEWYLQKPGQSPQLLIYLGSNRASGVPDRFSGSGSGTDFTLKISRVEAEDVGIYYCMQTLQTPITFGQGTRLEIKR
# output 10.72
